Where these numbers come from: patent US7619059B2

# Tested system: GSK3α (Homo sapiens, UniProt P49840)
# Sequence (P49840 whole entry): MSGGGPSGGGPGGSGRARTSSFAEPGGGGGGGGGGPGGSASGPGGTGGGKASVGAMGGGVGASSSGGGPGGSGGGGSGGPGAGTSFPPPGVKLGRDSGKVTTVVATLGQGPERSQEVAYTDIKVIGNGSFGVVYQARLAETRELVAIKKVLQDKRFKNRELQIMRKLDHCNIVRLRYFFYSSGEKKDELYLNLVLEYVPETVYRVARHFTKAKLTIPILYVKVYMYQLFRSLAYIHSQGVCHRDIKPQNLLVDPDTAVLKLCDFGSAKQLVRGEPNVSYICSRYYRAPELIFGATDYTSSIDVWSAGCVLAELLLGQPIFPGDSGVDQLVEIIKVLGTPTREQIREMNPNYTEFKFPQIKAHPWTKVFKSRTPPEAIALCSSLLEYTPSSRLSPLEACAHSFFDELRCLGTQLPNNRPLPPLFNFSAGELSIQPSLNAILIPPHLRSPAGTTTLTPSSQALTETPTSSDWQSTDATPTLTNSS
# Assay explanation: Z′-Lyte TR-FRET kinase assay, GSK3α
# Test settings: 400 nM substrate, 0.03 μg/ml GSK3α; read-out: ATP EC50 (ATP titration) GSK3α
pEC50: −log10 of the molar value.
Recorded metric: pEC50

Summary line: Nc1ncnc2c1ncn2[C@@H]1O[C@H](COP(=O)(O)OP(=O)(O)OP(=O)(O)O)[C@@H](O)[C@H]1O , GSK3α (Homo sapiens, UniProt P49840), reported pEC50 = ~5.00
